The reported measurements were obtained from patent US20240294570A1.

- System: ALP
- ASSAY TEXT: Dephosphorylation rate measurement (LC-MS)
- SETTINGS: alkaline phosphatase (ALP) in PBS, half-life of dephosphorylation, 400 μM, 0.5 U/mL ALP
Non-standard residues stand in square brackets, D forms with d. Residues, ends and D or L forms follow the SMILES beside them. *: point of attachment. pY = N[C@@H](Cc1ccc(OP(=O)(O)O)cc1)C(=O)O; NBD = O=[N+]([O-])c1ccc(*)c2nonc12; βAla = NCCC(=O)O
QUANTITY KIND: half-life at 400 μM (min)
Use min as the unit, but write only the number.

[Q] Return reported half-life at 400 μM; argument: CC(C)C[C@H](NC(=O)CCNc1ccc([N+](=O)[O-])c2nonc12)C(=O)N[C@@H](CC(C)C)C(=O)N[C@@H](CC(C)C)C(=O)N[C@@H](CC(C)C)C(=O)N[C@@H](Cc1ccc(OP(=O)(O)O)cc1)C(=O)O [compound 5, NBD-βA-LLLLpY] ({NBD-βAla}-LLLL[pY]-OH)
[A] 30.6

====

- System: ALP
- ASSAY TEXT: Dephosphorylation rate measurement (LC-MS)
- SETTINGS: alkaline phosphatase (ALP) in PBS, half-life of dephosphorylation, 100 μM, 0.5 U/mL ALP
Non-standard residues stand in square brackets, D forms with d. Residues, ends and D or L forms follow the SMILES beside them. *: point of attachment. pY = N[C@@H](Cc1ccc(OP(=O)(O)O)cc1)C(=O)O; NBD = O=[N+]([O-])c1ccc(*)c2nonc12; βAla = NCCC(=O)O
QUANTITY KIND: half-life at 100 μM (min)
Use min as the unit, but write only the number.

Past entries and their recorded results:
[[record]]
molecule = "CC(C)C[C@H](NC(=O)[C@H](CC(C)C)NC(=O)[C@H](Cc1ccc(OP(=O)(O)O)cc1)NC(=O)[C@H](CC(C)C)NC(=O)[C@H](CC(C)C)NC(=O)CCNc1ccc([N+](=O)[O-])c2nonc12)C(=O)O [compound 7, NBD-βA-LLpYLL] ({NBD-βAla}-LL[pY]LL-OH)"
quantity_kind = "half-life at 100 μM"
observed = 127

[[record]]
molecule = "CC(C)C[C@@H](NC(=O)CCNc1ccc([N+](=O)[O-])c2nonc12)C(=O)N[C@H](CC(C)C)C(=O)N[C@H](CC(C)C)C(=O)N[C@H](CC(C)C)C(=O)N[C@@H](Cc1ccc(OP(=O)(O)O)cc1)C(=O)O [compound 9, NBD-βA-llllpY] ({NBD-βAla}-[dL][dL][dL][dL][pY]-OH)"
quantity_kind = "half-life at 100 μM"
observed = 24.6


# ---- query molecule ----
[Q] Form: Entry = CC(C)C[C@H](NC(=O)CCNc1ccc([N+](=O)[O-])c2nonc12)C(=O)N[C@@H](CC(C)C)C(=O)N[C@@H](CC(C)C)C(=O)N[C@@H](CC(C)C)C(=O)N[C@@H](Cc1ccc(OP(=O)(O)O)cc1)C(=O)O [compound 5, NBD-βA-LLLLpY] ({NBD-βAla}-LLLL[pY]-OH) | System = ALP | half-life at 100 μM = ____
[A] 27.3

====

- ASSAY TEXT: Cell viability of iPSCs (trypan blue)
- Format: cell-based, human
- SETTINGS: human, human induced pluripotent stem cells (iPSC line A21); 400 μM, 2 hours
- Method: Cell Culture: Human induced pluripotent stem cell line A21 was generated from human normal dermal fibroblasts by using the StemRNA™-NM Reprogramming kit (Stemgent, Cat #00-0076). hiPSCs were routinely cultured and passaged on 6-well plates coated with 0.25 μg/cm^2 iMatrix-511 (Recombinant Laminin-511) (ReproCell) with NutriStem XF/FFTM medium (Biological Industries). HS-5 cell line and HEK293 cell line were purchased from American Type Culture Collection (ATCC, USA). […]
Non-standard residues stand in square brackets, D forms with d. Residues, ends and D or L forms follow the SMILES beside them. *: point of attachment. pY = N[C@@H](Cc1ccc(OP(=O)(O)O)cc1)C(=O)O; NBD = O=[N+]([O-])c1ccc(*)c2nonc12; βAla = NCCC(=O)O
QUANTITY KIND: viability at 2 h, 400 µM (%)
Use % as the unit, but write only the number.

[Q] Return reported viability at 2 h, 400 µM; argument: CC(C)C[C@H](NC(=O)CCNc1ccc([N+](=O)[O-])c2nonc12)C(=O)N[C@@H](CC(C)C)C(=O)N[C@@H](CC(C)C)C(=O)N[C@@H](CC(C)C)C(=O)N[C@@H](Cc1ccc(OP(=O)(O)O)cc1)C(=O)O [compound 5, NBD-βA-LLLLpY] ({NBD-βAla}-LLLL[pY]-OH)
[A] 6.96
